Exercise: for every item that follows, state its recorded log10 IC50.
- MEASURED TARGET: MAGL protein (Homo sapiens, UniProt Q99685)
- Sequence (Q99685 1-303): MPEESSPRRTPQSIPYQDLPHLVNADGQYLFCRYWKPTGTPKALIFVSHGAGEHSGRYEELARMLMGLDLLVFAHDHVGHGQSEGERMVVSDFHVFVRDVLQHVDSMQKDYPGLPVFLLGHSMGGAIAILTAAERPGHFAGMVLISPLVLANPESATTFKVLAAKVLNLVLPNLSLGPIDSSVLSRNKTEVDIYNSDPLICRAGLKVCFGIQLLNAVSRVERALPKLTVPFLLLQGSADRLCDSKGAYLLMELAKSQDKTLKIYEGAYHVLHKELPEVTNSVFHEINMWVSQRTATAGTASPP
Values below are the log10 of the recorded IC50, with nM as the unit.

Query :: Item under review: O=C(N1CC2(CC(Cc3ccc4nc(C(F)(F)F)nn4c3)C2)C1)N1CC2(CC(c3nc(C4CC4)n[nH]3)C2)C1 [compound 993] . Reported log10 IC50?
Result :: -0.10

Query :: Cool, now O=C(N1CC(c2cnc(NCC3(C(F)(F)F)CC3)cn2)C1)N1CC2(CC(c3nnc(C4CC4)[nH]3)C2)C1 [compound 255]
Result :: -0.17

Query :: Cool, now O=C(N1CC2(CC(Cn3cc(C(F)(F)F)ncc3=O)C2)C1)N1CC2(CC(c3nc(C4CC4)n[nH]3)C2)C1 [compound 960]
Result :: 0.71

Query :: Cool, now O=C(N1CC2(CC(c3nnc(C4(O)CC4)[nH]3)C2)C1)N1CC2(CN(Cc3ccc(F)cc3F)C2)C1 [compound 157]
Result :: 1.20

Query :: Cool, now O=C(N1CC(NCc2cc(F)ccc2C(F)(F)F)C1)N1CC2(CC(c3nnc(C4CC4)[nH]3)C2)C1 [compound 187]
Result :: 1.85

Query :: Cool, now O=C(N1CC2(CCC(Cc3ccc(C(F)(F)F)cn3)CC2)C1)N1CC2(CC(c3nc(C4COC4)n[nH]3)C2)C1 [compound 814]
Result :: 1.78

Query :: Cool, now O=C(N1CC2(CC(Oc3nc(C(F)(F)F)cs3)C2)C1)N1CC2(CC(c3nc(C4CC4)n[nH]3)C2)C1 [compound 423]
Result :: 0.05
